Test Target: Sphingosine 1-phosphate receptor 1 (Homo sapiens, UniProt P21453)
Sequence (P21453 whole entry): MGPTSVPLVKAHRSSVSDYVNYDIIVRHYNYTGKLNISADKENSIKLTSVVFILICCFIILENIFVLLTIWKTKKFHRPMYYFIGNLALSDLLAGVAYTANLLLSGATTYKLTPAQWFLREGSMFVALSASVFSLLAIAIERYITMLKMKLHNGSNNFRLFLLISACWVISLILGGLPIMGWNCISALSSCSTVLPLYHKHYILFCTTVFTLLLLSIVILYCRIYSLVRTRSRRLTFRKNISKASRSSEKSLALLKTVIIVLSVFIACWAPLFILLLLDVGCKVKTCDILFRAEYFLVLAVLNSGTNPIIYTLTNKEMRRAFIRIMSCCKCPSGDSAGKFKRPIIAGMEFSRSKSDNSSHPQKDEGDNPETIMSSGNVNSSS
Procedure Text: Agonist activity against S1P1 receptor by cell based FRET assay
Would you mind classing the entries by EC50? Ranges: low group (below 2 nM), middle group (2 nM to below 20 nM), high group (20 nM or more)

>>> label_class("CCc1c(CN2CCC(C(=O)O)CC2)cccc1-c1nsc(-c2ccc(OC(C)C)c(C(F)(F)F)c2)n1")
"middle group"
>>> label_class("CCc1c(CCN2CCC(C(=O)O)CC2)cccc1-c1nsc(-c2ccc(OC(C)C)c(Cl)c2)n1")
"low group"
>>> label_class("CCc1c(CCN2CC(O)C2)cccc1-c1nsc(-c2ccc(CC(C)C)c(C#N)c2)n1")
"high group"
>>> label_class("CCc1c(CN2CC(C(=O)O)C2)cccc1-c1nsc(-c2ccc(OC(C)C)c(Cl)c2)n1")
"middle group"
>>> label_class("CCc1c(CN2CC(C(=O)O)C2)cccc1-c1nsc(-c2ccc(OC(C)C)c(C(F)(F)F)c2)n1")
"low group"
>>> label_class("CCc1c(CN2CC(C(=O)O)C2)cccc1-c1nsc(-c2ccc(CC(C)C)c(C#N)c2)n1")
"middle group"
>>> label_class("CCc1c(CCCC(=O)O)cccc1-c1nsc(-c2ccc(-c3ccccc3)c(C(F)(F)F)c2)n1")
"middle group"
>>> label_class("CCc1c(CCCC(=O)O)cccc1-c1ncc(-c2ccc(OC(C)C)c(C#N)c2)cn1")
"high group"

Each recorded value in this set is attributed to ChEMBL document CHEMBL2057096.
